Test system: SW620 human colorectal cancer cells
Assay: MTT based cell viability assay: potentiation of the growth inhibiting activity of MMS
Details: Homo sapiens, SW-620, 120 h, read-out: IC50 (nM), potentiation of the growth inhibiting activity of MMS, SW620 cells, 1.7 μg/ml MMS, 5 days (120 hours), MTT
Could you mark each record MET if its IC50 falls strictly under 30 nM, and NOT MET if it equals or exceeds it?

- O=C(c1cccc(Cn2c(=O)[nH]c(=O)c3ccc(C(F)(F)F)cc32)c1)N1CCN(c2ncccn2)CC1 [Example 206]: NOT MET
- O=C(c1cccc(Cn2c(=O)[nH]c(=O)c3cc(F)ccc32)c1)N1CCN(C(=O)c2cccs2)CC1 [Example 141]: MET
- O=C(c1cc(Cn2c(=O)[nH]c(=O)c3ccccc32)ccc1F)N1CCN(C(=O)C2CCCCC2)CC1 [Example 41]: MET
- O=C(c1cccc(-n2c(=O)[nH]c(=O)c3ccccc32)c1)N1CCN(c2ncccn2)CC1 [Example 221]: NOT MET
- O=C(c1cccc(Cn2c(=O)[nH]c3ccccc3c2=O)c1)N1CCN(c2ncccn2)CC1 [Example 228]: NOT MET
- O=C(c1cccnc1)N1CCN(C(=O)c2cccc(Cn3c(=O)[nH]c(=O)c4ccccc43)c2)CC1 [Example 36]: NOT MET
- O=C(c1ccc(F)c(Cn2c(=O)[nH]c(=O)c3c(F)cccc32)c1)N1CCN(C(=O)c2cccs2)CC1 [Example 156]: MET
- COc1ccc(C(=O)N2CCN(C(=O)c3ccc(Cn4c(=O)[nH]c(=O)c5ccccc54)cc3)CC2)cc1 [Example 95]: NOT MET
- O=C(c1cccc(Cn2c(=O)[nH]c(=O)c3ccccc32)c1)N1CCN(c2ccccc2)CC1 [Example 19]: NOT MET
- O=C(c1cccc(Cn2c(=O)[nH]c(=O)c3ccccc32)c1)N1CCN(C2CCCCC2)CC1 [Example 5]: NOT MET
- O=C(c1cc(Cn2c(=O)[nH]c(=O)c3c(Cl)cccc32)ccc1F)N1CCN(c2ccccn2)CC1 [Example 106]: NOT MET
- O=C(c1cccc(Cn2c(=O)[nH]c(=O)c3cc(F)ccc32)c1)N1CCN(C(=O)C2CCCC2)CC1 [Example 143]: MET
- O=C(c1cccc(Cn2c(=O)[nH]c(=O)c3cc(Cl)ccc32)c1)N1CCN(c2ccccn2)CC1 [Example 114]: NOT MET
- Cc1ccc2c(=O)[nH]c(=O)n(Cc3cccc(C(=O)N4CCN(c5ncccn5)CC4)c3)c2c1 [Example 80]: NOT MET
- O=C(c1ccc(F)c(Cn2c(=O)[nH]c(=O)c3cc(Cl)ccc32)c1)N1CCN(c2ccccn2)CC1 [Example 174]: NOT MET
